- Tested on: 171881-019-R-J1-PDC tumor spheroid viability
- experiment-description: Anticancer human tumor 171881-019-R-J1-PDC patient-derived invasive breast carcinoma cell line growth inhibition [PI3K]
- settings: second compound 1 µM; first compound 0.1 µM; stronger effect = lower value; spheroids with HUVEC and MSC
measured-parameter: viability, T/C (%)
Note: unit % is implicit; provide only the numeric part.

Known results for compounds:
| compound | measured-parameter | obs-value |
| --- | --- | --- |
| C#Cc1c(F)ccc2cc(O)cc(-c3ncc4c(N5CC6CCC(C5)N6)nc(OCC56CCCN5CC(F)C6)nc4c3F)c12 (stereo not given) + CC(Nc1ccc2c(c1)OCCn1cc(N3C(=O)OCC3C(F)F)nc1-2)C(N)=O | viability, T/C | 12.3 |
| CNC(=O)c1ccc(N2C(=S)N(c3ccc(C#N)c(C(F)(F)F)c3)C(=O)C2(C)C)cc1F + CC(Nc1ccc2c(c1)OCCn1cc(N3C(=O)OCC3C(F)F)nc1-2)C(N)=O | viability, T/C | 21.3 |
| CCN1CCN(Cc2ccc(Nc3ncc(F)c(-c4cc(F)c5nc(C)n(C(C)C)c5c4)n3)nc2)CC1 + COc1c(OCCCN2CCOCC2)ccc2c3n(c(=NC(=O)c4cnc(N)nc4)nc12)CCN3 | viability, T/C | 1.03 |
| CC(=O)c1c(C)c2cnc(Nc3ccc(N4CCNCC4)cn3)nc2n(C2CCCC2)c1=O + Cc1nc(NC(=O)N2CCCC2C(N)=O)sc1-c1ccnc(C(C)(C)C(F)(F)F)c1 | viability, T/C | 38.8 |

Then there is this compound:
Input CC(Cn1ccc(-c2ccc(C#N)c(Cl)c2)n1)NC(=O)c1cc(C(C)O)[nH]n1 (stereo not given) + CC(Nc1ncnc2nc[nH]c12)c1cc2cccc(Cl)c2c(=O)n1-c1ccccc1 , output reported viability, T/C. 93.8

* * *

- Test system: 171881-019-R-J1-PDC tumor spheroid viability
- experiment-description: Anticancer human tumor 171881-019-R-J1-PDC cell line growth inhibition [PI3K];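 further: spheroids exposed to compound for 7 days before viability read; 100% = DMSO vehicle-treated spheroids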
- settings: second compound 10 µM; first compound 10 µM; stronger effect = lower value; spheroids with HUVEC and MSC
measured-parameter: viability, T/C (%)
Note: unit % is implicit; provide only the numeric part.

| compound | measured-parameter | obs-value |
| --- | --- | --- |
| Cn1nccc1Nc1nccc(-c2ccn(C(CO)c3ccc(Cl)c(F)c3)c(=O)c2)n1 (stereo not drawn) + CC(Nc1ncnc2nc[nH]c12)c1cc2cccc(Cl)c2c(=O)n1-c1ccccc1 | viability, T/C | 6.93 |
| CC(Cn1ccc(-c2ccc(C#N)c(Cl)c2)n1)NC(=O)c1cc(C(C)O)[nH]n1 (stereo not drawn) + CC(Nc1ncnc2nc[nH]c12)c1cc2cccc(Cl)c2c(=O)n1-c1ccccc1 | viability, T/C | 40.1 |

Then there is this compound:
Input CNC(=O)c1ccc(N2C(=S)N(c3ccc(C#N)c(C(F)(F)F)c3)C(=O)C2(C)C)cc1F + CC(Nc1ncnc2nc[nH]c12)c1cc2cccc(Cl)c2c(=O)n1-c1ccccc1 , output reported viability, T/C. 43.7

* * *

- Test system: 171881-019-R-J1-PDC tumor spheroid viability
- experiment-description: Anticancer human tumor 171881-019-R-J1-PDC cell line growth inhibition [PI3K]; active = viability on the fitted dose curve at most 10% of control; inactive = the rest;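 further: spheroids exposed to compound for 7 days before viability read; 100% = DMSO vehicle-treated spheroids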
- settings: second compound 10 µM; first compound 0.000316 µM; spheroids with HUVEC and MSC
Answer with one of the outcomes active, inactive

Consider the worked cases shown below.
| compound | assigned-class |
| --- | --- |
| CC(C)n1nc(-c2ccc3oc(N)nc3c2)c2c(N)ncnc21 + CC(Nc1ncnc2nc[nH]c12)c1cc2cccc(Cl)c2c(=O)n1-c1ccccc1 | inactive |
| CC(=O)c1c(C)c2cnc(Nc3ccc(N4CCNCC4)cn3)nc2n(C2CCCC2)c1=O + Cc1nc(NC(=O)N2CCCC2C(N)=O)sc1-c1ccnc(C(C)(C)C(F)(F)F)c1 | active |

Kindly provide the recorded test outcome for the following compound: CC(C)n1nc(-c2ccc3oc(N)nc3c2)c2c(N)ncnc21 + Cc1nc(NC(=O)N2CCCC2C(N)=O)sc1-c1ccnc(C(C)(C)C(F)(F)F)c1 active

Kindly provide the recorded test outcome for the following compound: Cn1ncnc1[C@H]1c2n[nH]c(=O)c3cc(F)cc(c23)N[C@@H]1c1ccc(F)cc1 + Cc1nc(NC(=O)N2CCCC2C(N)=O)sc1-c1ccnc(C(C)(C)C(F)(F)F)c1 active

Kindly provide the recorded test outcome for the following compound: CC(=O)c1c(C)c2cnc(Nc3ccc(N4CCNCC4)cn3)nc2n(C2CCCC2)c1=O + CC(Nc1ncnc2nc[nH]c12)c1cc2cccc(Cl)c2c(=O)n1-c1ccccc1 inactive

Kindly provide the recorded test outcome for the following compound: Cn1ncnc1[C@H]1c2n[nH]c(=O)c3cc(F)cc(c23)N[C@@H]1c1ccc(F)cc1 + CC(Nc1ncnc2nc[nH]c12)c1cc2cccc(Cl)c2c(=O)n1-c1ccccc1 inactive

Values compiled from PubChem BioAssay AID1963986.
